Target System: adrenergic alpha2A receptor (Homo sapiens)
Protocol Description: biochemical
Format: binding
Cond: read-out: Ki
Recorded Metric: pKi
Give only the number. pKi is defined as minus log10 of concentration in molar units.

Param readout= pKi; system= adrenergic alpha2A receptor (Homo sapiens); entry= "CC[C@H]1CN2CCc3c([nH]c4cccc(OC)c34)[C@@H]2C[C@@H]1/C(=C\OC)C(=O)OC" ; returns value.
6.44

---

Entries with reported Ki on mu opioid receptor (Homo sapiens)
Sequence (P35372 whole entry): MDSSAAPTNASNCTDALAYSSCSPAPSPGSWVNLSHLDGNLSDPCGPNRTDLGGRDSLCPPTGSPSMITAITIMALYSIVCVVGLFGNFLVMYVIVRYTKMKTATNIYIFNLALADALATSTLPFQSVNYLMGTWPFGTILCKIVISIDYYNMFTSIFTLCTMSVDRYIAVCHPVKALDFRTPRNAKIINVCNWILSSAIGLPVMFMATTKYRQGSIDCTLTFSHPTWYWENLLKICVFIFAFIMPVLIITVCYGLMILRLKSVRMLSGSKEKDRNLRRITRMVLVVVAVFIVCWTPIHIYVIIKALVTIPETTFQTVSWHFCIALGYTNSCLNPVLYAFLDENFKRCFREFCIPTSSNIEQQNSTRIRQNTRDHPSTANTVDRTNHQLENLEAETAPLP

Requested field: Ki. Item: COC(=O)C1=CO[C@@H](C)[C@@H]2CN3CCc4c([nH]c5ccccc45)[C@@H]3C[C@H]12 [Compound 12, Tetrahydroalstonine]
> 10 µM

Likewise for C=C[C@H]1CN2CC[C@@]3(C(=O)Nc4ccccc43)[C@@H]2C[C@@H]1/C(=C\OC)C(=O)OC [Compound 21, Isocorynoxeine] ?
> 10 µM

Likewise for C=C[C@H]1CN2CC[C@]3(C(=O)Nc4ccccc43)[C@@H]2C[C@@H]1/C(=C\OC)C(=O)OC [Compound 20, Corynoxeine] ?
> 10 µM

---

Target System: adrenergic alpha2B receptor (Homo sapiens, UniProt P18089)
Construct: host or cells: transient HEKT cells
Sequence (P18089 whole entry): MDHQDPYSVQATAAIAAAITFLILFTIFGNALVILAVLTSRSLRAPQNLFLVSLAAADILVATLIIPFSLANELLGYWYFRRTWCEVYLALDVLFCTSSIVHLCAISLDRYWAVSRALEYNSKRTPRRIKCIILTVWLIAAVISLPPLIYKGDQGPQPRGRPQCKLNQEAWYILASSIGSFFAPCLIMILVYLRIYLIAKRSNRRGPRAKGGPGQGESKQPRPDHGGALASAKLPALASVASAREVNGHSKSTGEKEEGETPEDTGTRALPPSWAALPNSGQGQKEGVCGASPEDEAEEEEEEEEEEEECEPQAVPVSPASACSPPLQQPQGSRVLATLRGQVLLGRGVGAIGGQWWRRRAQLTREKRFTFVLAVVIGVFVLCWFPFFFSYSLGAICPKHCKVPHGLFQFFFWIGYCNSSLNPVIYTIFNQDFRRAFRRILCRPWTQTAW
Protocol Description: biochemical
Type: binding
Recorded Metric: Ki

Param readout= Ki; system= adrenergic alpha2B receptor (Homo sapiens, UniProt P18089); entry= "CC[C@@H]1CN2CC[C@]3(C(=O)Nc4ccccc43)[C@@H]2C[C@@H]1/C(=C\OC)C(=O)OC" ; returns value.
> 10 µM

Likewise for "CC[C@H]1CN2CC[C@@]3(C(=O)Nc4ccccc43)[C@@H]2C[C@@H]1/C(=C\OC)C(=O)OC" ?
> 10 µM

Likewise for "C=C[C@H]1CN2CC[C@@]3(C(=O)Nc4ccccc43)[C@@H]2C[C@@H]1/C(=C\OC)C(=O)OC" ?
> 10 µM

---

Give pKi for every item shown.
Target System: UniProt P08913
Sequence (P08913 1-465): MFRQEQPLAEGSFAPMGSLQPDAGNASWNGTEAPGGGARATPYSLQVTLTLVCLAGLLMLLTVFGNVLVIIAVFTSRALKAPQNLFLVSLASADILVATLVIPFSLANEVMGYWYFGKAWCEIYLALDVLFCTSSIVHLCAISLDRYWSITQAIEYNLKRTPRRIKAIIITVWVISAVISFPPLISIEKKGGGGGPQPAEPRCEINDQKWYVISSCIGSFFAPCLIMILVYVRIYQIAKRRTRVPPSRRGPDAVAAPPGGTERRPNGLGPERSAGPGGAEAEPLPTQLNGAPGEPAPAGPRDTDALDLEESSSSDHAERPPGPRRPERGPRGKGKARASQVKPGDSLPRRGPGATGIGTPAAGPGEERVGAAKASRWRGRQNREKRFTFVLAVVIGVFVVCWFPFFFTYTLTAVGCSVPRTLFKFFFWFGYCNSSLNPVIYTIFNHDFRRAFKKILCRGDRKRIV
Protocol Description: biochemical
Type: binding
pKi: −log10 of the molar value.

Requested field: pKi. Item: "C=C[C@H]1CN2CC[C@]3(C(=O)Nc4ccccc43)[C@@H]2C[C@@H]1/C(=C\OC)C(=O)OC"
< 5.00

Likewise for "CC[C@@H]1CN2CC[C@]3(C(=O)Nc4ccccc43)[C@@H]2C[C@@H]1/C(=C\OC)C(=O)OC" ?
< 5.00

Likewise for "C=C[C@H]1CN2CC[C@@]3(C(=O)Nc4ccccc43)[C@@H]2C[C@@H]1/C(=C\OC)C(=O)OC" ?
< 5.00
